This section lists pIC50 readings for Xanthine dehydrogenase/oxidase (Bos taurus, UniProt P80457).
One number for each entry, as −log10 of the molar value.

The following compounds have reported results that may help.
In [3]: df
Out[3]:
                                chem_smiles                           measured_target  reported_property  data_value
0  CC(C)CCn1cc(C#N)c2cc(-c3noc(=O)[nH]3)ccc21  Xanthine dehydrogenase/oxidase (Bos taurus, UniProt P80457)              pIC50        5.99
1  Cc1ccc(Cn2cc(C#N)c3cc(-c4noc(=O)[nH]4)ccc32)cc1  Xanthine dehydrogenase/oxidase (Bos taurus, UniProt P80457)              pIC50        5.94
2  Cc1cccc(Cn2cc(C#N)c3cc(-c4noc(=O)[nH]4)ccc32)c1  Xanthine dehydrogenase/oxidase (Bos taurus, UniProt P80457)              pIC50        5.67
3  CC(C)Cn1cc(C#N)c2cc(-c3noc(=O)[nH]3)ccc21  Xanthine dehydrogenase/oxidase (Bos taurus, UniProt P80457)              pIC50        5.96
4  CC(C)n1cc(C#N)c2cc(-c3noc(=O)[nH]3)ccc21  Xanthine dehydrogenase/oxidase (Bos taurus, UniProt P80457)              pIC50        6.39

Would you mind giving pIC50 for every compound in the list below?
1. N#Cc1cn(Cc2cccc(Cl)c2)c2ccc(-c3noc(=O)[nH]3)cc12
2. CC(C)=CCn1cc(C#N)c2cc(-c3noc(=O)[nH]3)ccc21
3. N#Cc1cn(Cc2ccccc2)c2ccc(-c3noc(=O)[nH]3)cc12
4. N#Cc1cn(CC2CCCCC2)c2ccc(-c3noc(=O)[nH]3)cc12
5. Cc1ccc(Cn2cc(C#N)c3ccc(-c4noc(=O)[nH]4)cc32)cc1

1: 5.53; 2: 5.91; 3: 5.76; 4: 5.54; 5: 5.74
